Field: IC50. System: Lysine-specific histone demethylase 1A (Homo sapiens). Provenance: assorted publications.

compound	target_desc	observed_property	measured_value
COc1ccc2nc(-c3nc(C4(CN[C@H]5CC5c5ccccc5)CCC4)no3)sc2c1 (stereo partly drawn)	Lysine-specific histone demethylase 1A (Homo sapiens)	IC50	≤ 50 nM

Task item: Record lookup: for Lysine-specific histone demethylase 1A (Homo sapiens), what IC50 belongs to `CN[C@@H]1CCCN(C(=O)c2nc(-c3ccc(C#N)c(F)c3)n(-c3ccc(OC)cc3)c2C)C1` ?
Reply: < 100 nM

Task item: Record lookup: for Lysine-specific histone demethylase 1A (Homo sapiens), what IC50 belongs to `CN[C@H]1CCCN(C(=O)c2cn(-c3ccc4nn(C)c(Cl)c4c3)c(-c3ccc(C#N)c(F)c3)n2)C1` ?
Reply: < 100 nM

Task item: Record lookup: for Lysine-specific histone demethylase 1A (Homo sapiens), what IC50 belongs to `c1ccc([C@H]2C[C@@H]2NCC2(CNCc3cnc4n3CCC4)CC2)cc1` ?
Reply: 50 to 100 nM

Task item: Record lookup: for Lysine-specific histone demethylase 1A (Homo sapiens), what IC50 belongs to `N[C@H]1CC[C@H](c2noc(C3(CN[C@@H]4C[C@H]4c4ccccc4)CC3)n2)CC1` ?
Reply: ≤ 50 nM

Task item: Record lookup: for Lysine-specific histone demethylase 1A (Homo sapiens), what IC50 belongs to `Cn1c(N2CCC(N)CC2)nc(-c2ccc(C#N)c(F)c2)c(-c2ccc3ccn(C)c3c2)c1=O` ?
Reply: < 100 nM
